target: T1, HER2 expressed on the surface of cells (human, UniProt P04626 23-1255); assay: flow cytometry on MCF7 cells (low HER2), n=1
T1 construct: whole, on cells; also called ErbB2
Collected Bmax values appear next to each entry.
Give a bare numeral; the unit MFI is implied.

# BINDER, REPORTED_PROPERTY, MEASUREMENT_UNIT, ASSAY_VALUE
rows = [
    ("Variant 14022 (antibody, name in Kabat numbering, V domains shown, also called v14022) VH: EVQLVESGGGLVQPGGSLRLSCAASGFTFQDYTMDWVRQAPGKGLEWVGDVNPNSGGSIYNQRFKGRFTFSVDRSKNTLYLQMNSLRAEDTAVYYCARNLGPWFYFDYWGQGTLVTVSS VL: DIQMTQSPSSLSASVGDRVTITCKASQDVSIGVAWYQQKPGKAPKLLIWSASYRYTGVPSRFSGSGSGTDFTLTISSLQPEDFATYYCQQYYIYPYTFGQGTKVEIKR", "Bmax", "MFI", 630),
    ("Variant 14018 (antibody, name in Kabat numbering, V domains shown, also called v14018) VH: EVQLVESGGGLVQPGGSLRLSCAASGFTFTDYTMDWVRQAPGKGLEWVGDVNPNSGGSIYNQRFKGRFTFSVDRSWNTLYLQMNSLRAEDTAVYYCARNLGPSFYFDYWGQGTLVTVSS VL: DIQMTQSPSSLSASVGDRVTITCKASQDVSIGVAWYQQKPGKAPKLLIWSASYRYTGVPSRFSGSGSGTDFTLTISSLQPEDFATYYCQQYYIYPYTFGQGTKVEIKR", "Bmax", "MFI", 680),
]

Next:
# input binder: Variant 14023 (antibody, name in Kabat numbering, V domains shown, also called v14023) VH: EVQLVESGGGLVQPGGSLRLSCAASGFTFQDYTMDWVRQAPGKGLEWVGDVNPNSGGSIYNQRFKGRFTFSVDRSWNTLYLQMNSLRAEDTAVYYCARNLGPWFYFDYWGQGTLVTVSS VL: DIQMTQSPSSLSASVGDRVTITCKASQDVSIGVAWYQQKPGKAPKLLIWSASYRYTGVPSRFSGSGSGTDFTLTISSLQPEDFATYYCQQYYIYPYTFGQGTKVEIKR ; wanted: its Bmax
590

This collection of values is drawn from patent US20180273635A1.
